Molecular target: T1, IFN-αF (human, UniProt P01568 24-189)
T1 chain: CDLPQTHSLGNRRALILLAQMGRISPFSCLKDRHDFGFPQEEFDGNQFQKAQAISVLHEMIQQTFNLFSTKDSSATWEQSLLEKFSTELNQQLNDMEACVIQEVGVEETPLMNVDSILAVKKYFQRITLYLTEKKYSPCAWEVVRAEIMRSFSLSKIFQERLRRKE
Assay: cell-based or functional assay
Assay Endpoint: IC50, ISRE assay (nM)
The figure you give is taken to be in nM; do not add the unit.

Binder	Unit Spec	Recorded Result
IFWM3423 (antibody, IgG1, V domains shown) VH: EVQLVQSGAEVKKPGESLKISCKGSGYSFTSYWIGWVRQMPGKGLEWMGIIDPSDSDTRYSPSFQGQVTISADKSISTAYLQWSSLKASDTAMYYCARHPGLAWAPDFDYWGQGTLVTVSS VL: DIQMTQSPSSLSASVGDRVTITCRASQSIDGFLNWYQQKPGKAPKLLIYFASSLQSGVPSRFSGSGSGTDFTLTISSLQPEDFATYYCQQSYDLPITFGQGTKVEIK	nM	0.008
IFWM3321 (antibody, IgG1, V domains shown) VH: EVQLVQSGAEVKKPGESLKISCKGSGYSFTSYWIGWVRQMPGKGLEWMGIIDPSDSDTRYSPSFQGQVTISADKSISTAYLQWSSLKASDTAMYYCARHPGLNWAPDFDYWGQGTLVTVSS VL: DIQMTQSPSSLSASVGDRVTITCRASQSIDGALNWYQQKPGKAPKLLIYFASSLQSGVPSRFSGSGSGTDFTLTISSLQPEDFATYYCQQAYDFPLTFGQGTKVEIK	nM	0.054
IFWM3320 (antibody, IgG1, V domains shown) VH: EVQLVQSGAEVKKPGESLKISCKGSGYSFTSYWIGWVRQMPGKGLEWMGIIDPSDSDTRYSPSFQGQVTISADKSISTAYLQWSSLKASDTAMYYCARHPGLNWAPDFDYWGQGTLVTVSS VL: DIQMTQSPSSLSASVGDRVTITCRASQSINGVLNWYQQKPGKAPKLLIYFASSLQSGVPSRFSGSGSGTDFTLTISSLQPEDFATYYCQQSHDFPLTFGQGTKVEIK	nM	0.054
IFWM3328 (antibody, IgG1, V domains shown) VH: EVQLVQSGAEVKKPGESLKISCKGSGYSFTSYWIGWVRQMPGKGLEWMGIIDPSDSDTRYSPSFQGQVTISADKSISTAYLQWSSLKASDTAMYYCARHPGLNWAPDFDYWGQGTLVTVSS VL: DIQMTQSPSSLSASVGDRVTITCRASQSINNLNWYQQKPGKAPKLLIYWASSLQSGVPSRFSGSGSGTDFTLTISSLQPEDFATYYCQQGYDTPFTFGQGTKVEIK	nM	0.631

Next:
# query: IC50, ISRE assay of entry IFWM3385 (antibody, IgG1, V domains shown, mAb; IgG1/kappa said of the parent and of selected mAbs; also called IFWB3120) VH: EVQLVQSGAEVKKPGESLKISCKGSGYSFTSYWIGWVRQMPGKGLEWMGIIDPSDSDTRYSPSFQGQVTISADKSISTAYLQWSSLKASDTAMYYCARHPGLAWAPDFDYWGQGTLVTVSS VL: DIQMTQSPSSLSASVGDRVTITCRASQSIGDFLNWYQQKPGKAPKLLIYFASSLQSGVPSRFSGSGSGTDFTLTISSLQPEDFATYYCQQALDFPLTFGQGTKVEIK 0.066
